Test system hABHD6 (Homo sapiens (Human), UniProt Q9BV23), IC50 listed for each of the molecules.

Known results for molecules:
                                   molecule  assay_metric   measurement
0  O=C(COc1ccc2c(c1)CN(C(=O)OC(C(F)(F)F)C(F)(F)F)C2)N1CCOCC1 [Example 50]          IC50  10 to 100 nM
1  O=C(OC(C(F)(F)F)C(F)(F)F)N1CC2(CCC(Oc3cccc(F)c3)C2)C1 (centres unmarked) [Example 59]          IC50  10 to 100 nM
2  O=C(OC(C(F)(F)F)C(F)(F)F)N1CCc2cccc(Br)c2C1 [Example 4]          IC50  10 to 100 nM
3  O=C(OC(C(F)(F)F)C(F)(F)F)N1CCc2ccccc2[C@H]1c1ccccc1 [Example 2]          IC50     > 1000 nM
4  O=C(OC(C(F)(F)F)C(F)(F)F)N1CCc2ccccc2[C@@H]1c1ccccc1 [Example 3]          IC50     > 1000 nM
5  O=C(OC(C(F)(F)F)C(F)(F)F)N1CCc2cccc(-c3ccccc3)c2C1 [Example 27]          IC50     > 1000 nM

Lab note: measured IC50 of O=C(OC(C(F)(F)F)C(F)(F)F)N1CCc2c(cccc2-c2ccccc2)C1 [Example 28] was 100 to 1000 nM

Lab note: measured IC50 of O=C(OC(C(F)(F)F)C(F)(F)F)N1CC[C@]2(C1)C[C@@H](OC(c1ccc(F)cc1)c1ccc(F)cc1)C2 [Example 67] was 10 to 100 nM
